# TARGET: T1, biotin-labeled human PCSK9 protein (residues 30–692) (human, UniProt Q8NBP7 30-692, biotin-labeled (site not stated))
# T1 construct: PCSK9, human, residues 30–692; written as one chain; Held on streptavidin donor beads by the biotin; also called biotinylated PCSK9; full length PCSK9; source: baculovirus expression, purified recombinant
# T1 sequence (Q8NBP7 30-692): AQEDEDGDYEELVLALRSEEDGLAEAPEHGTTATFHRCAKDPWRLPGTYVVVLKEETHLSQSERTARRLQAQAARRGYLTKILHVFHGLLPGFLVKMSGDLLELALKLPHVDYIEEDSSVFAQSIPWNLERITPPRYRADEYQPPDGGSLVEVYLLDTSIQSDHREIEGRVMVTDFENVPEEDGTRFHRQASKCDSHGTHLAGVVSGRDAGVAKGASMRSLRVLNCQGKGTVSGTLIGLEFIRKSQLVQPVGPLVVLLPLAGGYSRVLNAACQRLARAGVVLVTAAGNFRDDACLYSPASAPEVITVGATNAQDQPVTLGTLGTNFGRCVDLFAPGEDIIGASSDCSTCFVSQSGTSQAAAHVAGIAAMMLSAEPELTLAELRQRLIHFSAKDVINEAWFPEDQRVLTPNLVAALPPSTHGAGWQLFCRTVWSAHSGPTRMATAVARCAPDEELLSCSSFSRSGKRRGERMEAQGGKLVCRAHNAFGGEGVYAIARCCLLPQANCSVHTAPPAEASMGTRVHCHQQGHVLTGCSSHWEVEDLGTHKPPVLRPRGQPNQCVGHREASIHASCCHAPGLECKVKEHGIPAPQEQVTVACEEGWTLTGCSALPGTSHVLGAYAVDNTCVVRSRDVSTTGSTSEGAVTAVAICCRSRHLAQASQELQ
# PROTOCOL: AlphaScreen or HTRF; competition: biotin-PCSK9 (15 nM) and His-LDLR ectodomain (15 nM) mixed with increasing AnxA2 peptide, 60 min at 20°C in 25 mM Hepes pH 7.4, 100 mM NaCl, 0.5 mM CaCl2, 0.1% BSA; streptavidin donor and nickel chelate acceptor beads, overnight at 20°C
# PROTOCOL_CONDITIONS: both partners purified
pIC50: −log10 of the molar value.
MEASURE_NAME: pIC50

Form field: reported pIC50 of 73 aa peptide corresponding to the AnxA2 R1 domain (residues 25–97) (peptide, UniProt P07355 25-97, looked up, N-terminus acetylated; C-terminal amide, annexin A2 (AnxA2), residues 25–97 of the R1 domain; also called 73-mer AnxA2 peptide (aa 25–97); long peptide form; source: synthetic peptide (solid phase synthesis, RP-HPLC purified)) peptide: GSVKAYTNFDAERDALNIETAIKTKGVDEVTIVNILTNRSNAQRQDIAFAYQRRTKKELASALKSALSGHLET ~6.22
